# study_target: T1, mFc tagged human LAG3 ECD recombinant protein (human, UniProt P18627 23-450)
# T1 construct: extracellular domain; purchased from Biointron; not shown: mouse IgG Fc (mFc) tag
# T1 sequence (looked up): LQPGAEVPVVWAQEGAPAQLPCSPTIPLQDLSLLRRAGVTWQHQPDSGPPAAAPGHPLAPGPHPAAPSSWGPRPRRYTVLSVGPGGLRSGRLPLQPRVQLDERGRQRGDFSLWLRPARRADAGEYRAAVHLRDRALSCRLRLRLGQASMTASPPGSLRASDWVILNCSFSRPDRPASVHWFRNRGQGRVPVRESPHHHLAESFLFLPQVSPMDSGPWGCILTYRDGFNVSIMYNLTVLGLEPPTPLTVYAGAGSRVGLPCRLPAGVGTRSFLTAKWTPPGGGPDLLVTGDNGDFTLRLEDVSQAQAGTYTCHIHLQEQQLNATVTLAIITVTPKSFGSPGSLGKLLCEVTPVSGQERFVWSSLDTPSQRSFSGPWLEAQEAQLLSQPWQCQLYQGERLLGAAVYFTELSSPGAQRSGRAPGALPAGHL
# test_protocol: competitive FACS: mFc tagged human LAG3 ECD binding to MHC II on Raji cells
%Blocking at 8 nM values by entry
Provide only the numeric value, understood in %.

Use these answered entries as a reference point.
binder	%Blocking at 8 nM, %
hu029.53 (antibody, V domains shown, humanized from 029c) VH: QVQLVESGGGLVKPGGSLRLSCAASGFTFSSYAMSWIRQAPGKGLEWVAYVTSGGDYIYYADTVKGRFTISRDDAKNSLYLQMNSLRAEDTAMYYCTRVAYDYEWYFDVWGQGALVTVSS VL: DIQMTQSPSSVSASVGDRVTITCKASQDVTTAVAWYQQKPGKAPKLLIYSASYRYTGVPSRFSGSGSGTDFTLTISSLQPEDFATYYCQQHDSSPWTFGQGTKLEIK	98
029c (antibody, human IgG4, V domains shown, human IgG4 S228P / kappa chimeric antibody; also called chimeric antibody 029; not shown: human kappa light chain constant region (pcDNA3.4-hIgGk vector)) VH: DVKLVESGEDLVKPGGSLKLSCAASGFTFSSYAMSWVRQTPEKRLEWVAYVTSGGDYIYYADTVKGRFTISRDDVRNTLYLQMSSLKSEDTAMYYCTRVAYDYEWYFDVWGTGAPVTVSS VL: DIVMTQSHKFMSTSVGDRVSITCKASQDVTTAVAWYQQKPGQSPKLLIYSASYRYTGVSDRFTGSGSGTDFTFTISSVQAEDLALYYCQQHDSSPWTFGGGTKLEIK	84.3

Shifting focus to the binder that follows.
Lookup result for hu021.212 (antibody, V domains shown, humanized from 021c) VH: QVQLQESGPGLVKPSQTLSLTCTVSGYSISSGYYWNWIRQHPGNKLEWIGDISYEGGNNYNPSLKNRVTISRDTSKNQFSLKLSSVTAADTAVYYCARDITLTGAMDYWGQGTTVTVSS VL: EIVLTQSPATLSLSPGERATLSCRASESVDNYGISFMHWYQQKPGQAPRLLIYRASNLETGIPARFSGSGSRTDFTLTISSLEPEDFAVYYCQQSNKDPYTFGQGTKLEIK ; measured %Blocking at 8 nM: 71.5

Where do these numbers come from? They come from patent US20250313625A1.
